System: U-87 MG
assay.comment: Antiproliferative activity against human U87 cells transfected with lentivirus expressing shNC assessed as reduction in cell viability after 24 hrs by MTT assay
Format: functional, cell-based, U-87MG ATCC
readout.name: IC50

[[record]]
smiles_data = "C=C1C(=O)O[C@H]2[C@H]1CC/C(C(=O)OCCOCCOC(=O)/C1=C/CC[C@@]3(C)O[C@H]3[C@H]3OC(=O)C(=C)[C@@H]3CC1)=C\\CC[C@@]1(C)O[C@@H]21"
val = "7.39 µM"


====

Tested on: U-87 MG
assay.comment: Antiproliferative activity against human U87 cells transfected with lentivirus expressing shPKM2 assessed as reduction in cell viability after 24 hrs by MTT assay
Format: functional, cell-based, U-87MG ATCC
pIC50: −log10 of the molar value.
readout.name: pIC50

[[record]]
smiles_data = "C=C1C(=O)O[C@H]2[C@H]1CC/C(C(=O)OCCOCCOC(=O)/C1=C/CC[C@@]3(C)O[C@H]3[C@H]3OC(=O)C(=C)[C@@H]3CC1)=C\\CC[C@@]1(C)O[C@@H]21"
target_under_test = "U-87 MG"
val = 5.75

